src = patent US6509379B1

measured_endpoint: melting point

> print(dat)
                                  structure         result
1  CO/N=C(/C(C)=N/OCc1ccccc1/C(=N\OC)C(=O)OC)c1ccc(N(C)C(=O)C(C)(C)C)cc1  111 to 113 °C
2  CO/N=C(/C(C)=N/OCc1ccccc1/C(=N\OC)C(=O)OC)c1ccc(NC(=O)C(C)(C)C)cc1  114 to 116 °C
3  CNC(=O)/C(=N/OC)c1ccccc1CO/N=C(C)/C(=N/OC)c1ccc(N(C)C(=O)C(C)(C)C)cc1  168 to 170 °C
4  CO/N=C(\C)c1ccc(C(=N\OC)/C(C)=N/OCc2ccccc2/C(=N\OC)C(=O)OC)cc1  112 to 114 °C
